Data origin: paper PMC8541575

- Experimental Protocol: In vivo pharmacokinetic study after intravenous administration
- Run Conditions: male, Sprague-Dawley, rat, plasma, rats, i.v., 5 mg/kg body weight, mean ± SD (n = 4), read-out: CL (clearance)
Parameter Measured: clearance (mL/min/kg)

Structure As Smiles	Parameter Measured	Unit Abbrev	Reported Value
O=C(/C=C/c1cccc(S(=O)(=O)n2ccc3cccnc32)c1)NO	clearance	mL/min/kg	288

###

- Experimental Protocol: In vivo pharmacokinetic study after intravenous administration
- Run Conditions: male, Sprague-Dawley, rat, plasma, rats, i.v., 5 mg/kg body weight, mean ± SD (n = 4), read-out: AUC0–24h
Parameter Measured: AUC(0-t) (ng·h/mL)

Molecule	Unit Abbrev	Reported Value
O=C(/C=C/c1cccc(S(=O)(=O)n2ccc3cccnc32)c1)NO [MPT0B291]	ng·h/mL	291
